Quick reference for inhibition at 200 µM among some compounds
- TARGET_DESC: S-ACE2 interaction (SARS-CoV-2 S protein trimer, Wuhan strain, with biotinylated-ACE2) (Severe acute respiratory syndrome coronavirus 2)
- TEST_DETAILS: biochemical
- Format: binding

[
  {
    "COMPOUND": "CS(=O)(=O)N1CCCc2cc(-c3csc(-c4cccc(C(N)=O)c4)n3)ccc21",
    "inhibition at 200 µM": "20%"
  },
  {
    "COMPOUND": "O=C(CCc1nc2ccccc2s1)N1CCC(CCc2ccc(O)cc2)CC1",
    "inhibition at 200 µM": "20%"
  },
  {
    "COMPOUND": "CCCCCCCCCCCCCCCC(=O)NCCO [PEA, palmitoylethanolamide, reference compound]",
    "inhibition at 200 µM": "17%"
  },
  {
    "COMPOUND": "CCCCC/C=C\\C/C=C\\CCCCCCCC(=O)O [LA, linoleic acid, reference compound]",
    "inhibition at 200 µM": "84%"
  },
  {
    "COMPOUND": "CCn1c2ccccc2c2cc(NC(=O)c3ccc(OCC(N)=O)cc3)ccc21",
    "inhibition at 200 µM": "28%"
  },
  {
    "COMPOUND": "CC(NC(=O)CCC(=O)N1CCC(c2ccccc2)=N1)c1ccc(-n2cncn2)cc1 (stereo not shown)",
    "inhibition at 200 µM": "~20%"
  },
  {
    "COMPOUND": "Cc1cccc(OCC(=O)N2CC=C(c3c[nH]c4ccccc34)CC2)c1C",
    "inhibition at 200 µM": "20%"
  }
]

---

- TEST_DETAILS: in vitro
- RECORDED_CONDITIONS: African green monkey

[
  {
    "MOLECULE": "CC(NC(=O)CCC(=O)N1CCC(c2ccccc2)=N1)c1ccc(-n2cncn2)cc1 (stereo not shown) [compound 17]",
    "CC50 / µM": 90
  }
]
